Listed next: entries and their corresponding difference in excitability.
Test system: Danio rerio larvae (5 dpf)
Assay method text: difference in excitability vs DMSO (percentage points); higher = more excitable than DMSO
Protocol conditions: 10 µM; exposure time 6 h
Form rule: numeric answer, no unit written next to it.

Sample answers from the record:
Compound | difference in excitability
O=C(O)CCNC(=O)c1ccc(/N=N/c2ccc(O)c(C(=O)O)c2)cc1 [Balsalazide] | 4.51
Cc1cn([C@H]2C[C@H](N=[N+]=[N-])[C@@H](CO)O2)c(=O)[nH]c1=O | 4.38

For the record C/C(=C\c1csc(C)n1)[C@@H]1C[C@@H]2O[C@]2(C)CCC[C@H](C)[C@H](O)[C@@H](C)C(=O)C(C)(C)[C@@H](O)CC(=O)N1 [Ixabepilone] , what value of difference in excitability is listed for Danio rerio larvae (5 dpf)? 0.28
